Test system: A2780
Test: Cytotoxicity against human A2780 cells assessed as reduction in cell viability after 3 days by XTT assay
Type: functional, cell-based
Conditions: A2780, 72 h
pIC50: −log10 of the molar value.
Observable: pIC50

>>> recorded_result("Cc1sc2c(c1C)C(c1ccc(Cl)cc1)=N[C@@H](CC(=O)OC(C)(C)C)c1nnc(C)n1-2")
7.00
>>> recorded_result("COc1cccc(OCCCN)c1-c1cc(Nc2cnc(C#N)cn2)n[nH]1")
7.40
